B1: GALNT9 (parent)
chain: FTQSGPIVSRATGRCLEVEMSKDA

Variants of: B1
protocol: protein stability index of a GFP-peptide fusion (GPS, HEK-293T) (PSI 1-6); higher = more stable;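 also: lentivirally expressed fusions sorted by FACS into six bins by GFP to DsRed ratio, PSI derived from sequencing read proportions per bin multiplied by bin number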
protocol conditions: c terminus: a fixed tail appended
Kindly supply the reported protein stability index values for the records listed here.
Answers are plain numbers.

Record excerpt, results attached:
[[record]]
alteration = "R14N"
data_value = 2.88

[[record]]
alteration = "A11P"
data_value = 2.31

[[record]]
alteration = "R14T"
data_value = 1.99


Would you mind giving protein stability index for every variant in the list below?
1. E17Y
2. M20I
3. S21H
4. K22G
5. A24P
6. F1I

1. 3.5
2. 2.28
3. 1.76
4. 2.7
5. 3.19
6. 2

Would you mind giving protein stability index for every variant in the list below?
1. F1M
2. S4H

1: 1.74; 2: 1.91

Would you mind giving protein stability index for every variant in the list below?
1. S21Q
2. Q3M

[1.34, 3.03]

Would you mind giving protein stability index for every variant in the list below?
1. Q3Y
2. Q3N
3. M20C
4. I7E

1.73
1.24
1.89
2.63

Would you mind giving protein stability index for every variant in the list below?
1. V8T
2. M20E
3. R10K
4. A11G
5. L16T

[1.42, 3.66, 2.65, 1.95, 3.25]
